Test system: SK-MEL-2
Strictly below 500 nM in GI50: true (1). Otherwise: false (0).

INPUT: Strictly below 500 nM: is that where GI50 of O=S(=O)(c1ccc(Cl)cc1)N1CCC[C@@H](Nc2nccc(-c3c(-c4cccc(O)c4)nc4occn34)n2)C1 [Compound 4] sits?
OUTPUT: false (0)

INPUT: Strictly below 500 nM: is that where GI50 of O=S(=O)(C1CC1)N1CCC(Nc2nccc(-c3c(-c4cccc(O)c4)nc4occn34)n2)CC1 [Compound 11] sits?
OUTPUT: false (0)

INPUT: Strictly below 500 nM: is that where GI50 of Cn1ccc(S(=O)(=O)N2CCC[C@@H](Nc3nccc(-c4c(-c5cccc(O)c5)nc5occn45)n3)C2)n1 [Compound 17] sits?
OUTPUT: true (1)

INPUT: Strictly below 500 nM: is that where GI50 of Cn1ccc(S(=O)(=O)N2CCC[C@@H](Nc3nccc(-c4c(-c5ccc(F)c(O)c5)nc5occn45)n3)C2)n1 [Compound 22] sits?
OUTPUT: true (1)

INPUT: Strictly below 500 nM: is that where GI50 of O=S(=O)(c1ccc(F)cc1)N1CCC(Nc2nccc(-c3c(-c4cccc(O)c4)nc4occn34)n2)CC1 [Compound 9] sits?
OUTPUT: true (1)

INPUT: Strictly below 500 nM: is that where GI50 of O=S(=O)(c1ccc(Cl)cc1)N1CCC(Nc2nccc(-c3c(-c4cccc(O)c4)nc4sccn34)n2)CC1 [Compound 7] sits?
OUTPUT: false (0)

INPUT: Strictly below 500 nM: is that where GI50 of Cn1ccc(S(=O)(=O)N2CCC(Nc3nccc(-c4c(-c5cccc(O)c5)nc5occn45)n3)CC2)n1 [Compound 20] sits?
OUTPUT: true (1)

INPUT: Strictly below 500 nM: is that where GI50 of Cn1ccc(S(=O)(=O)N2CCC[C@@H](Nc3nccc(-c4c(-c5cccc(O)c5)nc5sccn45)n3)C2)n1 [Compound 14] sits?
OUTPUT: true (1)
